Form field: half-life (one value per entry).
Experiment: Rat oral pharmacokinetics (plasma)
Assay type: in vivo
Conditions: male, CD Sprague Dawley, 20-30 μmol/kg, mean n = 3, read-out: t½ (converted)
ASSAY_READOUT: half-life (h)

{"columns": ["COMPOUND", "UNIT_ANNOTATION", "EXPERIMENTAL_VALUE"],
 "data": [
  ["OCCn1ccc2ccc(CN3CCC[C@@H](Nc4ccc5[nH]ncc5c4)C3)cc21 [Compound 1.108]", "h", 1.36],
  ["Cc1ccc(CN2CCC[C@H](Nc3cccc4cnccc34)C2)cc1 [Compound 2.045]", "h", 1.59],
  ["NC(=O)Cn1ccc2ccc(CN3CCC[C@H](Nc4ccc5[nH]ncc5c4)C3)cc21 [Compound 1.107]", "h", 1.28],
  ["CS(=O)(=O)Nc1cccc(CN2CC[C@@H](Nc3cccc4cnccc34)C2)c1 [Compound 2.038]", "h", 0.71],
  ["OCCOc1cccc(CN2CC[C@@H](Nc3cccc4cnccc34)C2)c1 [Compound 2.039]", "h", 1.13]
]}

* * *

Target: Akt3 human enzyme (Homo sapiens, UniProt Q9Y243)
Construct: purchased Upstate Chemicon 14-502
Sequence (Q9Y243 whole entry): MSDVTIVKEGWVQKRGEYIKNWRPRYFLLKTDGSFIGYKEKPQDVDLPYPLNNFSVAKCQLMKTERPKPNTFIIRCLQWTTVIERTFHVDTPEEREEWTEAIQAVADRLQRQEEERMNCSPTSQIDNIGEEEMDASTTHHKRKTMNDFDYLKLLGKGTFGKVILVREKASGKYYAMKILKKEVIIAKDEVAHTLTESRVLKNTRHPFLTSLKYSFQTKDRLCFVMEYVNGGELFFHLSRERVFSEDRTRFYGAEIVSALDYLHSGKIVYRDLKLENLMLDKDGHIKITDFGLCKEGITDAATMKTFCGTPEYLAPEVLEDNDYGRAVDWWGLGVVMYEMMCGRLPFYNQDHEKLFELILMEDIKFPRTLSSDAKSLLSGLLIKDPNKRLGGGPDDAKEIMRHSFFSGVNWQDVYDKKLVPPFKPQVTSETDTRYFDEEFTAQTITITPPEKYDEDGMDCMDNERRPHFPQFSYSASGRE
Test: Akt3 inhibition assay (IMAP FP);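 note: kinase reaction run 60 min at room temperature after 30 µM ATP start, phosphorylated substrate captured on IMAP beads and read as fluorescence polarization (mP)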
Format: biochemical
Settings: 30 μM ATP; Ki=IC50/(1+([ATP Challenge]/EC50 ATP)); read-out: Akt3 Ki, Avg
// NB: equality with 700 nM counts as F; only Ki strictly below is T

{"columns": ["MOLECULE", "ASSIGNED_LABEL"],
 "data": [
  ["Brc1ccc(CN2CCC[C@H](Nc3ccc4[nH]ncc4c3)C2)cc1", "F"],
  ["C#Cc1cccc(CN2CCC[C@H](Nc3ccc4[nH]ncc4c3)C2)c1", "F"],
  ["Clc1ccc(CN2CCC[C@H](Nc3ccc4[nH]ncc4c3)C2)cc1", "F"],
  ["CSc1ccc(CN2CCCC(Nc3cccc4cnccc34)C2)cc1 (centres unmarked)", "F"],
  ["CCS(=O)(=O)Nc1cccc(CN2CCC[C@@H](Nc3ccc4[nH]ncc4c3)C2)c1", "F"],
  ["c1cc(C2CC2)ccc1CN1CCC[C@@H](Nc2ccc3[nH]ncc3c2)C1", "T"],
  ["Fc1ccc(CN2CCC[C@@H](Nc3ccc4[nH]ncc4c3)C2)cc1", "T"],
  ["CS(=O)(=O)Nc1cc(CN2CCC[C@H](Nc3ccc4[nH]ncc4c3)C2)ccc1Cl", "F"],
  ["CC(C)(C)OC(=O)NCc1cccc(CN2CCC[C@H](Nc3ccc4[nH]ncc4c3)C2)c1", "F"],
  ["c1cc2cc(CN3CCC[C@H](Nc4ccc5[nH]ncc5c4)C3)ccc2s1", "F"],
  ["Brc1ccc(CN2CCC[C@@H](Nc3ccc4[nH]ncc4c3)C2)cc1", "T"],
  ["NC(=O)Cn1ccc2ccc(CN3CCC[C@@H](Nc4ccc5[nH]ncc5c4)C3)cc21", "F"],
  ["CC(=O)NCc1cccc(CN2CCC[C@H](Nc3ccc4[nH]ncc4c3)C2)c1", "F"],
  ["c1cc2ccc(CN3CCC[C@H](Nc4ccc5[nH]ncc5c4)C3)cc2[nH]1", "F"],
  ["C=Cc1ccc(CN2CCC[C@@H](Nc3ccc4[nH]ncc4c3)C2)cc1", "T"],
  ["C#Cc1ccc(CN2CCC[C@@H](Nc3ccc4[nH]ncc4c3)C2)cc1", "T"]
]}
